Test system: HeLa cells
Experiment: Tumor volume of subcutaneously transplanted HeLa cells in SCID/SCID mice
Format: in vivo
Settings: HeLa tumor-bearing SCID/SCID mice, 5 mg/kg intraperitoneally every day for two weeks; result in words
readoutName: Increase in the size of the tumor tissue compared with the control group

compound="CC(CC(N)C(=O)O)C(F)(F)F.Cl (stereo not shown)" reading="dramatically inhibited"
compound=NC(=O)[C@H](F)C[C@H](N)C(=O)O reading="dramatically inhibited"
compound=NC(=O)[C@@H](F)C[C@H](N)C(=O)O reading="dramatically inhibited"

====

Tested on: HeLa cells
Test: Tumor volume of subcutaneously transplanted HeLa cells in SCID/SCID mice
Type: in vivo
Settings: 5 mg/kg intraperitoneally every day for two weeks starting day 7; 7 days since HeLa cell transplantation
readoutName: Tumor volume (mm^3)

molecule=NC(=O)[C@@H](F)C[C@H](N)C(=O)O reading=72.1
molecule="CC(CC(N)C(=O)O)C(F)(F)F.Cl (stereo not shown)" reading=135.6
molecule="CC(C)C[C@H](N)C(=O)O [Leu, leucine, reference compound]" reading=77.4
molecule=NC(=O)[C@H](F)C[C@H](N)C(=O)O reading=74.6

====

Tested on: HeLa cells
Assay: Tumor volume of subcutaneously transplanted HeLa cells in SCID/SCID mice
Type: in vivo
Details: 5 mg/kg intraperitoneally every day for two weeks starting day 7; 14 days since HeLa cell transplantation
Catalogue of Tumor volume values
readoutName: Tumor volume (mm^3)

molecule="CC(C)C[C@H](N)C(=O)O [Leu, leucine, reference compound]" measurementtarget="HeLa cells" readoutname="Tumor volume" readingunit=mm^3 reading=385.1
molecule="CC(CC(N)C(=O)O)C(F)(F)F.Cl (stereo not shown)" measurementtarget="HeLa cells" readoutname="Tumor volume" readingunit=mm^3 reading=200.6
molecule=NC(=O)[C@H](F)C[C@H](N)C(=O)O measurementtarget="HeLa cells" readoutname="Tumor volume" readingunit=mm^3 reading=219.1
molecule=NC(=O)[C@@H](F)C[C@H](N)C(=O)O measurementtarget="HeLa cells" readoutname="Tumor volume" readingunit=mm^3 reading=207.1
